Reported pEC50 values follow for various binders
Tested on: T1, FGFR2IIIb Fc fusion (negative control) (human)
T1 construct: also called FGFR2b; not shown: Fc part of the FGFR-Fc fusion
T1 chain: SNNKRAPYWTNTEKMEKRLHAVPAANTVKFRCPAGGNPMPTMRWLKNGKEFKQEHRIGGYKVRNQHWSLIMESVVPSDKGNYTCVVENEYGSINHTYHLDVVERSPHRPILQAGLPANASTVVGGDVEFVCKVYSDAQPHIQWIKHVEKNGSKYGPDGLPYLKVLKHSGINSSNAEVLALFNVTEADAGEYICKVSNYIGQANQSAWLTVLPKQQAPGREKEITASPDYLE
Assay method text: ELISA, scFv on coated FGFR-Fc
pEC50: −log10 of the molar value.

# example entries with known answers
Binder	Observed result
Ab7 (scFv format) (scFv, also called FGF#51) scFv: QVQLVESGGGVVQPGRSLRLSCAASGFTFSGYAIHWVRQAPGKGLEWVALISYDGSNKYYADSAKGRFTISRDNSKNTLSLQMNSLRVEDTAIYYCVRGAGRGYTYGPDGFDIWGQGTMVTVSSASTGGGGSGGGGSGGGGSGGGGSDIVMTQTPLSSPVTLGQPASISCRSSESLVYRDGNTYLSWLHQRPGQSPRLLIYKVSNRFSGVPDRFSGSGAGTDFTLKISRVEAEDVGVYFCMQATQFPWTFGQGTKVEIKRTVAAPSHHHHHH	~4.01
Ab3 (scFv format) (scFv, also called FGF#78) scFv: EVQLVESGGGVVQPGRSLRLSCAASGFTFSQYSMHWVRQSPGKGLEWVTLISFDGADKYYADSVKGRFTISRDNSNDTLFLHMNGLRVEDTAIYYCVRGAGRGYTYGPDGFDIWGQGTMVTVSSASTGGGGSGGGGSGGGGSGGGGSDIQLTQSPSSLSASVGDRVTITCRTSQTISRYLNWYQQQPGKAPKLLIYTATSLQSGVPSRFSGSGSGTDFTLTIGGLQPEDFAIYFCQQTYSAPLTFGGGTKVEIKRTVAAPSHHHHHH	~3.97
Ab15 (scFv format) (scFv, also called FGF#26) scFv: EVQLLESGGGVVQPGRSLRLSCAASGFTFSSYAMHWVRQAPGKGLEWVAVISYDGSNKYYADSVKGRFTISRDNSKNTLSLQMNSLRVEDTAIYYCVRGAGRGYTYGPDGFDIWGQGTMVTVSSASTGGGGSGGGGSGGGGSGGGGSDIVMTQTPLSLSVTPGQPASISCTSSRSLLHSDGKTYVYWYVQKSGQPPQLLIYELSNRFSGVPDRFSGSGSRTDFTLKISRVEAEDVGVYYCMQYIEAPLTFGGGTKVEIKRTVAAPSHHHHHH	~4.10

// next entry
Query string: Item under review: Ab14 (scFv format) (scFv, also called FGF#24) scFv: EVQLVETGGGLIQPGGSLRLSCVASGFTVSSNYMSWVRQAPGKGLEWVSVIFSDGTTYYADSVKGRFTISRDNSKNTLYLQMNSLKTEDTAVYYCVAGPANGAYDIWGQGTMVTVSSASTGGGSGGGGSNIQMTQSPSILSASVGDRVTITCRASQSISNWLAWYQQKPGKAPKLLIFRASTLESGVPSRFSGSGSGAEFNLTISSLQPDDFATYYCQQYNVYSGTFGQGTKVEIKRTVAAPSHHHHHH . Reported pEC50?
Result string: ~3.25
